Attribution: patent US20250057928A1

Test system: recombinant human IL-23 protein (rhIL-23)
test: Binding of mouse antiserum to rhIL-23, ELISA
condition notes: rhIL-23 ELISA; antiserum of BALB/c mice 6 weeks after initial administration, 0.5 mg/body with Alhydrogel
Where no end group is shown, it is not given here.
reported endpoint: binding to IL-23 (binding ratio to normal serum)

The following substances have reported results that may help.
substance: 32 (SQPWQR; not fully specified (N-terminus); listed as Homo sapiens) [compound 32]
recorded value: 1.03
//
substance: 24 (STSQTWQR; not fully specified (N-terminus)) [compound 24]
recorded value: 1.20

P. 6 (SPSQPWQR; not fully specified (N-terminus); listed as Homo sapiens) [compound 6]
Q. 20 (SPSQTWQR; not fully specified (N-terminus)) [compound 20]
Between P and Q , whose recorded binding to IL-23 (binding ratio to normal serum) is greater? Answer = label.
P
(P: 4.40, Q: 1.23)
